Origin of measurements: paper PMC8942502

target: hMAO-A (Homo sapiens)
Sequence (P21397 whole entry): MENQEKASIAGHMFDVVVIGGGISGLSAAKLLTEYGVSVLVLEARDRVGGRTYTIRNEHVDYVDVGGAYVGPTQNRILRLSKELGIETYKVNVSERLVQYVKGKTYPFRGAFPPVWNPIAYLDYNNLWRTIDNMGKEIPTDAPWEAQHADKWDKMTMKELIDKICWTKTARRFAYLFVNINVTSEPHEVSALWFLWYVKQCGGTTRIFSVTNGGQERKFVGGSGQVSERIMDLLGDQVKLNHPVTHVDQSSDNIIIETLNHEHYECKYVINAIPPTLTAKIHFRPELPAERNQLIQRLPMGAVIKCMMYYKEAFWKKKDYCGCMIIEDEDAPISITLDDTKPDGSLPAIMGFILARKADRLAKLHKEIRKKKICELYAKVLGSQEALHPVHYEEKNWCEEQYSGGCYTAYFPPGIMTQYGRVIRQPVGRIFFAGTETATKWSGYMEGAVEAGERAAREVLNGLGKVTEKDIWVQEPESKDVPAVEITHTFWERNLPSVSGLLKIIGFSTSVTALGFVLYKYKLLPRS
The label 1.0 is reserved for IC50 strictly under 0.04 µM; 0.0 covers values equal to or above it.

Worked examples, 3 molecules total:
Cl.NC1CC1c1ccc(NC(=O)c2ccc(-c3ccoc3)cc2)cc1 (centres unmarked)    0.0
Cl.NC1CC1c1ccc(NC(=O)c2ccc(-c3cccs3)cc2)cc1 (centres unmarked)    1.0
Cl.NC1CC1c1ccc(NC(=O)c2ccc(-c3ccncc3)cc2)cc1 (centres unmarked)    0.0

**Query** Regarding Cl.NC1CC1c1ccc(NC(=O)c2ccc(-c3ccco3)cc2)cc1 (centres unmarked) , kindly confirm whether its IC50 is beneath 0.04 µM.
**Result** 0.0

**Query** What do we get for Cl.NC1CC1c1ccc(NC(=O)c2ccc(-c3ccsc3)cc2)cc1 (centres unmarked) ?
**Result** 0.0
